- target.under.test: Inhibitor of nuclear factor kappa-B kinase subunit epsilon (Homo sapiens) (UniProt Q14164);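 further: reported values are averaged percent inhibition figures against human IKKε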
- Sequence (Q14164 whole entry): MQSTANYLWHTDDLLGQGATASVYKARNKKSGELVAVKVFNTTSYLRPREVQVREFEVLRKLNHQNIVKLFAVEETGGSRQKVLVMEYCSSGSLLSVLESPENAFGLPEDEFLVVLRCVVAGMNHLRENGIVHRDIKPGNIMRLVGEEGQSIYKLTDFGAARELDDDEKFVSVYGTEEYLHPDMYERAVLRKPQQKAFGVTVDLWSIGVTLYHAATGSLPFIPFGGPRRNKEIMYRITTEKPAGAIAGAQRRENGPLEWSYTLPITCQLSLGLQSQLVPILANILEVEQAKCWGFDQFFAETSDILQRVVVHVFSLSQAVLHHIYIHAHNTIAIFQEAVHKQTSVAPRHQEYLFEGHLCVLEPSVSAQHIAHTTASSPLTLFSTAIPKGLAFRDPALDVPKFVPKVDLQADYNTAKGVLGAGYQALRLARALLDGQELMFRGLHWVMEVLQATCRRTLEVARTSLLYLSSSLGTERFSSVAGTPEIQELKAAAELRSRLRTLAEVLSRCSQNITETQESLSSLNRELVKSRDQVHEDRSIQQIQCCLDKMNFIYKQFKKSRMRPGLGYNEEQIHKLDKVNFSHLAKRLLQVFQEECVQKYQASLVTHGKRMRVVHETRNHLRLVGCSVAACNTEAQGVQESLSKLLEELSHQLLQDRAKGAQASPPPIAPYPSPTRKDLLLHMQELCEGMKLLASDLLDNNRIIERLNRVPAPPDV
- condition.summary: at 1 µM
Parameter inhibition: see the listing below.

molecule	inhibition, %
NC(=O)c1sc(-n2cnc3ccc(C(F)(F)F)cc32)cc1OCc1ccccc1Br	6.28
Clc1ccc(-c2nn3ncccc3c2-c2ccnc(Nc3ccccc3)n2)cc1	-3.51
CCn1c(-c2nonc2N)nc2c(C#CC(C)(C)O)ncc(OC3CCNCC3)c21	95.8
CCN1CCC(CC(=O)Nc2n[nH]c3nnc(-c4cccc(F)c4F)cc23)CC1	4.56
CCn1c(-c2nonc2N)nc2c(C#CC(C)(C)O)nc(OC[C@H](N)c3ccccc3)cc21	37.9
CN(C)CCOc1ccc(-c2nc(-c3ccncc3)c(-c3ccc4c(c3)CC/C4=N\O)[nH]2)cc1	7.42
CCn1c(-c2nonc2N)nc2ccccc21	1.58
CCNC(=O)O[C@H]1CN[C@H](C#Cc2cc3ncnc(Nc4ccc(OCc5cccc(F)c5)c(Cl)c4)c3s2)C1	2.76
CCCN(CCS(C)(=O)=O)Cc1ccc(-c2ccc3ncnc(Nc4ccc(OCc5cccc(F)c5)c(Cl)c4)c3c2)o1	1.08
CC1=C(C(=O)Nc2cc(Cl)c3[nH]ncc3c2)C(c2ccc(C(F)(F)F)cc2)CC(=O)N1 (stereo not given)	5.11
c1ccc(-c2nc3n(c2-c2ccc4c(c2)OCO4)CCC3)nc1	1.63
COc1cc(N2CCN(C(C)C)CC2)ccc1Nc1nc(Nc2ccc(F)cc2C(N)=O)c2cc[nH]c2n1	4.36
CCn1cc(-c2ccnc3[nH]ccc23)c(-c2cccc(NC(=O)Nc3ccc(OCc4ccccc4)cc3)c2)n1	3.46
CS(=O)(=O)CCNCc1ccc(-c2ccc3ncnc(Nc4ccc(OCc5ccccc5)c(C(F)(F)F)c4)c3c2)o1	5.28
O=C(Nc1n[nH]c2cc(-c3ccc(F)cc3)ccc12)C1CC1	3.59

* * *

- target.under.test: Serine/threonine-protein kinase PAK 3 (Homo sapiens);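 further: mean percent inhibition of PAK3, measured in a screen of the GSK published kinase inhibitor set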
- condition.summary: at 0.1 µM
property.label: inhibition (%)

chemical.string	reported.value
N#Cc1c(NC(=O)CN2CCOCC2)sc2c1CCCC2	3.48
CCc1nn2ncccc2c1-c1ccnc(NC2CC2)n1	3.09
CCNC(=O)O[C@H]1CN[C@H](C#Cc2cc3ncnc(Nc4ccc(OCc5cccc(F)c5)c(Cl)c4)c3s2)C1	3.71
Fc1ccc(-c2cc(-c3c[nH]nc3-c3ccccn3)ccn2)cc1	4.08
COc1cc(N2CCN(C(C)C)CC2)ccc1Nc1nc(Nc2ccc(F)cc2C(N)=O)c2cc[nH]c2n1	2.9
Clc1ccc(-c2nn3ncccc3c2-c2ccnc(Nc3ccccc3)n2)cc1	0.58
CNC(=O)c1cccc(C#Cc2cncnc2Nc2ccc(OCc3cccc(F)c3)c(Cl)c2)c1	-0.16
CC(C)(CO)CNC(=O)c1ccc2c(c1)/C(=N/Nc1ccc(S(N)(=O)=O)cc1)C(=O)N2	-1.02
Nc1ncc(-c2cccc(S(N)(=O)=O)c2)c2scc(-c3ccc(F)c(Cl)c3)c12	5.21
c1cc(-c2cnn3nc(N4CCOCC4)ccc23)nc(NC2CC2)n1	4.26
COc1ccc(-c2oc3ncnc(N)c3c2-c2ccc(NC(=O)Nc3cc(C(F)(F)F)ccc3F)cc2)cc1	4.72
CCOc1ccc2c(-c3ccnc(Nc4cccc(C(F)(F)F)c4)n3)cnn2n1	3.17

* * *

- target.under.test: Protein kinase C beta type (Homo sapiens) (UniProt P05771);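 further: GSK PKIS screen, average inhibition of the PKC-beta2 splice variant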
- Sequence (P05771 2-671 limits assumed): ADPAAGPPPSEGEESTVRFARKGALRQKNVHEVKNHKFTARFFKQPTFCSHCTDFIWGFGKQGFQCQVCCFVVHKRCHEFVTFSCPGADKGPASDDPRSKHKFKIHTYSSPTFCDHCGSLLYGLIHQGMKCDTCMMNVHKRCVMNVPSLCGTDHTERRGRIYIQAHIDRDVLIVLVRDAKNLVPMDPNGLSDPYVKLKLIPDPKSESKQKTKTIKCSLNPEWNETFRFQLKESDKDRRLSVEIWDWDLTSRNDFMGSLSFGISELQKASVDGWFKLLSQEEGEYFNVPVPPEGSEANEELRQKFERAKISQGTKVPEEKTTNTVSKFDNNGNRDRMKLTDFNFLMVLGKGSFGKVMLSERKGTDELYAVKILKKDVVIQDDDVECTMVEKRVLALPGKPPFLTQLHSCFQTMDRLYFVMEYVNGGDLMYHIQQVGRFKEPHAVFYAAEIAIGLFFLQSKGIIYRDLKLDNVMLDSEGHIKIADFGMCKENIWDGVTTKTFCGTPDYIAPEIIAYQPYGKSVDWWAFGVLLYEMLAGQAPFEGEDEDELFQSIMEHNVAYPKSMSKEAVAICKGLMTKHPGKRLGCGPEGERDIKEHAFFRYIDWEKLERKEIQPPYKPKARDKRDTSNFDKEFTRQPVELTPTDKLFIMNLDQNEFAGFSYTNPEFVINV
- condition.summary: at 1 µM
- Description: GSK_PKIS: PKC-beta2 (splice variant) mean inhibition at 1 uM [Nanosyn]
I would appreciate it if you labelled entries Y when inhibition is 4% or higher, otherwise N.

chemical.string	category
COc1ccc2c(-c3ccnc(Nc4cccc(OC(F)(F)F)c4)n3)cnn2n1	Y
Fc1ccc(-c2cc(-c3c[nH]nc3-c3ccccn3)ccn2)cc1	N
NS(=O)(=O)c1ccc(N/N=C2\C(=O)Nc3ccc4ncccc4c32)cc1	N
COc1cccc(-c2c[nH]c3c(N/N=C/c4ccncc4)ncnc23)c1	Y
Nc1ncc(-c2cccc(S(N)(=O)=O)c2)c2scc(-c3ccc(F)c(Cl)c3)c12	N
Cc1cccc(Nc2ncc(-c3ccccc3)o2)c1	Y
COc1cccc(-n2ncc3c(N/N=C/c4ccc(F)cc4)ncnc32)c1	N
NS(=O)(=O)c1ccc(Nc2ncc(-c3ccccc3)o2)cc1	N
COc1cc2c(cc1Nc1nc(Nc3ccsc3C(N)=O)c3cc[nH]c3n1)N(C(=O)CN(C)C)CCC2(C)C	Y
CS(=O)(=O)CCNCc1coc(-c2ccc3ncnc(Nc4ccc(OCc5ccccc5)cc4)c3c2)c1	N
Cc1ccc2c(-c3ccnc(Nc4ccccc4)n3)c(-c3ccc(F)cc3)nn2n1	Y
COC(=O)c1sc(-n2cnc3cc(OC)c(OC)cc32)cc1OCc1ccccc1C(F)(F)F	N
CC(C)(CO)CNC(=O)c1ccc2c(c1)/C(=N/Nc1ccc(S(N)(=O)=O)cc1)C(=O)N2	N

* * *

- target.under.test: G protein-coupled receptor kinase 6 (Homo sapiens) (UniProt P43250);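 further: values are averaged percent inhibition of GRK6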
- Sequence (P43250 whole entry, looked up): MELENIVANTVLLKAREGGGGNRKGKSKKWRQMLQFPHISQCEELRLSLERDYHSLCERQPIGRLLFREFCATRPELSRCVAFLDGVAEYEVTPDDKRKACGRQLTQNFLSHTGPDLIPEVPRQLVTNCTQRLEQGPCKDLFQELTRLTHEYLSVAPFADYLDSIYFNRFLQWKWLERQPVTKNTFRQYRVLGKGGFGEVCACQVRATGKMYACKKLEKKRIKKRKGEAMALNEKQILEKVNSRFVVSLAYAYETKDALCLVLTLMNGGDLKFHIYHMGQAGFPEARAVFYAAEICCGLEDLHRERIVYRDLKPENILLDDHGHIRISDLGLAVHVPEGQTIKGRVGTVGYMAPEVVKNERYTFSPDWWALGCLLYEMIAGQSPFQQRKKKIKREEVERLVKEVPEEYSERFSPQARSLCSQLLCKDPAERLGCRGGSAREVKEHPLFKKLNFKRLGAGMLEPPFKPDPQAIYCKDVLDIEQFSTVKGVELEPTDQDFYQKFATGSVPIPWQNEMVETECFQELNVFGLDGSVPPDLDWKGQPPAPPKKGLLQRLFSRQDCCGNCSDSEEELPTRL
- condition.summary: at 1 µM
property.label: inhibition (%)

chemical.string	property.label	reported.value
CCn1cc(-c2ccnc3[nH]ccc23)c(-c2cccc(NC(=O)Nc3ccc(OCc4ccccc4)cc3)c2)n1	inhibition	0.99
[O-][S+]1CCN(Cc2ccc(-c3ccc4ncnc(Nc5ccc(OCc6cccc(F)c6)c(Cl)c5)c4c3)o2)CC1	inhibition	4.79
CCn1c(-c2nonc2N)nc2ccccc21	inhibition	-3.25

* * *

- target.under.test: Discoidin domain-containing receptor 2 (Homo sapiens) (UniProt Q16832);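 further: reported figure is the mean inhibition of DDR2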
- Sequence (Q16832 whole entry, the tested form may be a part): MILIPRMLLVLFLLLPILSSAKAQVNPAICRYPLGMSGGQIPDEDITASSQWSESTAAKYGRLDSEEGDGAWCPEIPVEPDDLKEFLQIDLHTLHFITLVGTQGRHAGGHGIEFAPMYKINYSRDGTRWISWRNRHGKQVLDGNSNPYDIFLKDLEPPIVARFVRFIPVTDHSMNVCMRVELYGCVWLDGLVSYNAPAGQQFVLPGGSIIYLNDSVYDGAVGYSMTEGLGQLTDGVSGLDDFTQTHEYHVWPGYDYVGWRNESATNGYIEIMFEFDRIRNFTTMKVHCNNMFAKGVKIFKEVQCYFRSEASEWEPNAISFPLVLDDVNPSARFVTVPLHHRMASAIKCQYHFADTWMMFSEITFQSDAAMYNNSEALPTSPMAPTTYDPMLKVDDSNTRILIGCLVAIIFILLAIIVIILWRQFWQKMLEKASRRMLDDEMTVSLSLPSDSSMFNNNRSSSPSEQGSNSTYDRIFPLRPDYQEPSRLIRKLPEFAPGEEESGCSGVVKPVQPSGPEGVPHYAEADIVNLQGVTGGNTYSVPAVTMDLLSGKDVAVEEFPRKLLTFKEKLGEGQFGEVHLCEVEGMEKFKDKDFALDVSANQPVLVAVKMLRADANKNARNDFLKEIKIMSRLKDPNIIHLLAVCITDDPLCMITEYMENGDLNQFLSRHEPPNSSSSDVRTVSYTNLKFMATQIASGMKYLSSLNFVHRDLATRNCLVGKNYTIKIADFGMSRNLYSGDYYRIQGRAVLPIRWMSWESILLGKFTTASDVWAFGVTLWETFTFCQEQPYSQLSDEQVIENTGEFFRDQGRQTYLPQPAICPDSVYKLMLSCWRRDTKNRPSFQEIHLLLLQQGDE
- condition.summary: at 1 µM
Parameter inhibition: see the listing below.
property.label: inhibition (%)

chemical.string	reported.value
COc1cc(N2CCN(C(C)C)CC2)ccc1Nc1nc(Nc2ccc(F)cc2C(N)=O)c2cc[nH]c2n1	0.35
CC(C)(CO)CNC(=O)c1ccc2c(c1)/C(=N/Nc1ccc(S(N)(=O)=O)cc1)C(=O)N2	3.39
COc1ccc2c(-c3ccnc(Nc4cccc(OC(F)(F)F)c4)n3)cnn2n1	3.16

* * *

Parameter inhibition: see the listing below.
- target.under.test: Ribosomal protein S6 kinase alpha-5 (Homo sapiens);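 further: mean inhibition of MSK1, from screening of the GSK PKIS inhibitor set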
- condition.summary: at 1 µM

chemical.string	target.under.test	inhibition (%)
COc1ccc(-c2cc3c(N)ncnc3o2)cc1	Ribosomal protein S6 kinase alpha-5 (Homo sapiens)	-3.04
COC(=O)Nc1nc2ccc(S(=O)(=O)c3ccc(NC(=O)Nc4cc(C(F)(F)F)ccc4F)cc3)cc2[nH]1	Ribosomal protein S6 kinase alpha-5 (Homo sapiens)	1.23
CN1CCC(n2cnc(-c3ccc(F)cc3)c2-c2ccnc(Nc3ccccc3)n2)CC1	Ribosomal protein S6 kinase alpha-5 (Homo sapiens)	3.4
CCNC(=O)O[C@H]1CN[C@H](C#Cc2cc3ncnc(Nc4ccc(OCc5cccc(F)c5)c(Cl)c4)c3s2)C1	Ribosomal protein S6 kinase alpha-5 (Homo sapiens)	2.55
CS(=O)(=O)CCNCc1coc(-c2ccc3ncnc(Nc4ccc(OCc5ccccc5)cc4)c3c2)c1	Ribosomal protein S6 kinase alpha-5 (Homo sapiens)	1.55
c1ccc(-c2nc3n(c2-c2ccc4c(c2)OCO4)CCC3)nc1	Ribosomal protein S6 kinase alpha-5 (Homo sapiens)	8.14
COc1cc(/C=N/Nc2ncnc3[nH]ncc23)ccc1O	Ribosomal protein S6 kinase alpha-5 (Homo sapiens)	13.9

* * *

- Test system: Platelet-derived growth factor receptor alpha (Homo sapiens), P16234 [T674I]
- Sequence (P16234 whole entry T674I): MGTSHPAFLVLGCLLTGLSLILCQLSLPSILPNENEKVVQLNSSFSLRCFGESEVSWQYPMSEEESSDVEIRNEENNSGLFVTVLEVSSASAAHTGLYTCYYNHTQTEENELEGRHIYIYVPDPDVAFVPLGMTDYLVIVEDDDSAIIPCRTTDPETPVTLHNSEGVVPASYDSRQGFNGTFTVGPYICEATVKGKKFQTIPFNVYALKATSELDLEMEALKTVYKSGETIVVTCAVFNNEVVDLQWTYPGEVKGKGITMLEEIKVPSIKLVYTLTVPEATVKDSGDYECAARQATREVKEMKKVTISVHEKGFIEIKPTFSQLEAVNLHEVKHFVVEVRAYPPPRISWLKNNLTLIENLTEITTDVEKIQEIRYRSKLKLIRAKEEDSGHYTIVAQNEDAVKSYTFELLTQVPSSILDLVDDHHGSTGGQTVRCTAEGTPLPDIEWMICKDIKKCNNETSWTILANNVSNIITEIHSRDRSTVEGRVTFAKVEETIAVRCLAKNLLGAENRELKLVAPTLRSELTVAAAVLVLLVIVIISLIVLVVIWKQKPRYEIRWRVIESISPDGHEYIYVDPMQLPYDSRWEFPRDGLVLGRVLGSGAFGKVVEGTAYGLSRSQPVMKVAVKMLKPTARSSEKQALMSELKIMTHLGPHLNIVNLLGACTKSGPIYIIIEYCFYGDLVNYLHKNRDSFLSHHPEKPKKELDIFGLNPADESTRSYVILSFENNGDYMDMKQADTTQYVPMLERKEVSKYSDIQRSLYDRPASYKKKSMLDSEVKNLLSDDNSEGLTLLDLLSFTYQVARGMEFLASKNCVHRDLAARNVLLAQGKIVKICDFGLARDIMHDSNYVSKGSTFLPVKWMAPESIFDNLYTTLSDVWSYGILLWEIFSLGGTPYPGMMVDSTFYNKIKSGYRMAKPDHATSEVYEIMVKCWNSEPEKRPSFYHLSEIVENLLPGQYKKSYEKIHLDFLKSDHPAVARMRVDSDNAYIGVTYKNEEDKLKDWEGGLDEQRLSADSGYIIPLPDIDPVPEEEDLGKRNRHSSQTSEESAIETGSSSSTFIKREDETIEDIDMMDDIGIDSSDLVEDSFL
- condition.summary: at 1 µM
property.label: inhibition (%)

chemical.string	target.under.test	reported.value
COc1cc2c(cc1Nc1nc(Nc3ccsc3C(N)=O)c3cc[nH]c3n1)N(C(=O)CN(C)C)CCC2(C)C	Platelet-derived growth factor receptor alpha (Homo sapiens), P16234 [T674I]	16.9
COc1ccc2[nH]c3c4[nH]c5ccc(OC)cc5c4c4c(c3c2c1)C(=O)NC4=O	Platelet-derived growth factor receptor alpha (Homo sapiens), P16234 [T674I]	94.3
COc1ccc(-c2oc3ncnc(N)c3c2-c2ccc(NC(=O)Nc3cc(C(F)(F)F)ccc3F)cc2)cc1	Platelet-derived growth factor receptor alpha (Homo sapiens), P16234 [T674I]	72.1
COc1cc(/C=N/Nc2ncnc3[nH]ncc23)ccc1O	Platelet-derived growth factor receptor alpha (Homo sapiens), P16234 [T674I]	16.5
COc1ccc2c(-c3ccnc(Nc4cccc(OC(F)(F)F)c4)n3)cnn2n1	Platelet-derived growth factor receptor alpha (Homo sapiens), P16234 [T674I]	9.76
c1ccc(-c2nc3n(c2-c2ccc4c(c2)OCO4)CCC3)nc1	Platelet-derived growth factor receptor alpha (Homo sapiens), P16234 [T674I]	2.15
NC(=O)c1sc(-n2cnc3ccc(C(F)(F)F)cc32)cc1OCc1ccccc1Br	Platelet-derived growth factor receptor alpha (Homo sapiens), P16234 [T674I]	5.62
CNC(=O)c1cncc(/C=C/c2ccccc2Cl)c1	Platelet-derived growth factor receptor alpha (Homo sapiens), P16234 [T674I]	2.13
Cc1cccc(Nc2ncc(-c3ccccc3)o2)c1	Platelet-derived growth factor receptor alpha (Homo sapiens), P16234 [T674I]	50.3

* * *

- target.under.test: Tyrosine-protein kinase JAK1 (Homo sapiens)
- condition.summary: at 0.1 µM
- Description: GSK_PKIS: JAK1 mean inhibition at 0.1 uM [Nanosyn]
I would appreciate it if you labelled entries TRUE when inhibition is 3% or higher, otherwise FALSE.

chemical.string	category
CCCN1CCC(c2ccc(Nc3nc(Nc4cc(F)ccc4C(N)=O)c4cc[nH]c4n3)c(OC)c2)CC1	FALSE
O=S(=O)(CCNCc1ccc(-c2ccc3ncnc(Nc4ccc(OCc5cccc(F)c5)c(Cl)c4)c3c2)o1)c1ccccc1	TRUE
CCn1cc(-c2ccnc3[nH]ccc23)c(-c2cccc(NC(=O)Nc3ccc(OCc4ccccc4)cc3)c2)n1	FALSE
CCNC(=O)O[C@H]1CN[C@H](C#Cc2cc3ncnc(Nc4ccc(OCc5cccc(F)c5)c(Cl)c4)c3s2)C1	TRUE
COc1ccc(CNC(=O)c2ccc(-c3cc(-c4nnc(C)o4)ccc3C)cc2)cc1	TRUE
